The reported measurements were obtained from the supplement of paper PMC11061612.

# Test system: DEL (T-Cell Non-Hodgkin's Lymphoma)
# protocolSummary: combination Emax (second highest fraction inhibited in the dose matrix, 72 h); higher = more inhibition; extreme values may be limits of the assay
What combination Emax was measured for each of the following?
Answers are plain numbers.

As a guide, the following entries are already answered.
Cn1cnc2c(F)c(Nc3ccc(Br)cc3Cl)c(C(=O)NOCCO)cc21 [Selumetinib] + CCN(CCO)CCCOc1ccc2c(Nc3cc(CC(=O)Nc4cccc(F)c4)[nH]n3)ncnc2c1 [AZD2811] (first compound max 10 µM, 7x7, partner max 1 µM) | 0.965
CN(CCO)CC[C@H](CSc1ccccc1)Nc1ccc(S(=O)(=O)NC(=O)c2ccc(N3CCC([C@@H](O)c4ccccc4-c4ccc(Cl)cc4)CC3)cc2)cc1S(=O)(=O)C(F)(F)F [AZD4320] + C[C@@H]1COCCN1C2=NC(=NC(=C2)C3(CC3)[S@](=N)(=O)C)C4=C5C=CNC5=NC=C4 [AZD6738] (first compound max 1 µM, 7x7, partner max 10 µM) | 1
CN(C)CCCOc1ccc(-c2ccc3ncc4c(c3c2)n(C2CCOCC2)c(=O)n4C)cn1 [AZD0156] + CCN(CCO)CCCOc1ccc2c(Nc3cc(CC(=O)Nc4cccc(F)c4)[nH]n3)ncnc2c1 [AZD2811] (first compound max 1 µM, 7x7, partner max 1 µM) | 0.684
CC(=O)Nc1cccc(-n2c(=O)n(C3CC3)c(=O)c3c(Nc4ccc(I)cc4F)n(C)c(=O)c(C)c32)c1 [Trametinib] + Cc1nc(-c2cn3c(n2)-c2ccc(-c4cnn(C(C)(C)C(N)=O)c4)cc2OCC3)n(C(C)C)n1 [Taselisib] (first compound max 1 µM, 7x7, partner max 10 µM) | 0.618

Lab note: next compound to report on.
Bench note: what combination Emax did CN(C)CCCOc1ccc(-c2ccc3ncc4c(c3c2)n(C2CCOCC2)c(=O)n4C)cn1 [AZD0156] + C[C@@H]1COCCN1C2=NC(=NC(=C2)C3(CC3)[S@](=N)(=O)C)C4=C5C=CNC5=NC=C4 [AZD6738] (first compound max 1 µM, 7x7, partner max 10 µM) show?
0.988

* * *

What Bliss excess was measured for each of the following?
# System: HT-1376 (Bladder Carcinoma)
# protocolSummary: Bliss excess, mean over the matrix (fraction); higher = more synergy
Answers are plain numbers.

As a guide, the following entries are already answered.
Cc1c2c(nn1C)CSCc1cc(n(C)n1)CSc1cc(c3ccccc3c1)OCCCc1c(C(=O)O)n(C)c3c-2c(Cl)ccc13 [AZD5991] + C[C@@H](Nc1cc(F)cc(F)c1)c1cc(C(=O)N(C)C)cc2c(=O)cc(N3CCOCC3)oc12 [AZD8186] (first compound max 1 µM, 7x7, partner max 3 µM) | -0.0304
Cc1c2c(nn1C)CSCc1cc(n(C)n1)CSc1cc(c3ccccc3c1)OCCCc1c(C(=O)O)n(C)c3c-2c(Cl)ccc13 [AZD5991] + Cn1cnc2c(F)c(Nc3ccc(Br)cc3Cl)c(C(=O)NOCCO)cc21 [Selumetinib] (first compound max 1 µM, 7x7, partner max 3 µM) | 0.0144

Lab note: next molecule to report on.
Bench note: what Bliss excess did COc1cccc2c1C(=O)c1c(O)c3c(c(O)c1C2=O)C[C@@](O)(C(=O)CO)C[C@@H]3O[C@H]1C[C@H](N)[C@H](O)[C@H](C)O1 [Doxorubicin] + Cc1cc2ncnn2cc1Nc1ncc2c(n1)n(C1CCOCC1)c(=O)n2C [AZD7648] (first compound max 1 µM, 7x7, partner max 10 µM) show?
-0.0544

* * *

# Test system: AGS (Gastric Carcinoma)
# protocolSummary: Bliss excess, mean over the matrix (fraction); higher = more synergy
readoutType: Bliss excess
Give bare numbers.

CN(CCO)CC[C@H](CSc1ccccc1)Nc1ccc(S(=O)(=O)NC(=O)c2ccc(N3CCC([C@@H](O)c4ccccc4-c4ccc(Cl)cc4)CC3)cc2)cc1S(=O)(=O)C(F)(F)F [AZD4320] + C=CCn1c(=O)c2cnc(Nc3ccc(N4CCN(C)CC4)cc3)nc2n1-c1cccc(C(C)(C)O)n1 [AZD1775] (first compound max 1 µM, partner max 1 µM) | 0.0191

Required: Bliss excess, one value per compound below.
1. COc1cccc(OCCCN)c1-c1cc(Nc2cnc(C#N)cn2)n[nH]1 [Prexasertib] + C=CCn1c(=O)c2cnc(Nc3ccc(N4CCN(C)CC4)cc3)nc2n1-c1cccc(C(C)(C)O)n1 [AZD1775] (first compound max 1 µM, partner max 1 µM)
2. COc1nnc2ccc(N3CCC(c4ccc(OCCN5CCN(C)C(=O)[C@H]5C)cc4)CC3)nn12 [AZD5153] + C[C@@H]1COCCN1C2=NC(=NC(=C2)C3(CC3)[S@](=N)(=O)C)C4=C5C=CNC5=NC=C4 [AZD6738] (first compound max 1 µM, 7x7, partner max 10 µM)
3. COc1nnc2ccc(N3CCC(c4ccc(OCCN5CCN(C)C(=O)[C@H]5C)cc4)CC3)nn12 [AZD5153] + CCN(CCO)CCCOc1ccc2c(Nc3cc(CC(=O)Nc4cccc(F)c4)[nH]n3)ncnc2c1 [AZD2811] (first compound max 1 µM, 7x7, partner max 1 µM)
4. CC1(C)CCC(CN2CCN(c3ccc(C(=O)NS(=O)(=O)c4ccc(NCC5CCOCC5)c([N+](=O)[O-])c4)c(Oc4cnc5[nH]ccc5c4)c3)CC2)=C(c2ccc(Cl)cc2)C1 [Venetoclax] + C1CN(CCC1(C(=O)N[C@@H](CCO)C2=CC=C(C=C2)Cl)N)C3=NC=NC4=C3C=CN4 [Capivasertib] (first compound max 1 µM, 7x7, partner max 3 µM)
5. Cc1nc(Nc2ncc(C(=O)Nc3c(C)cccc3Cl)s2)cc(N2CCN(CCO)CC2)n1 [Dasatinib] + CC(=O)Nc1cccc(-n2c(=O)n(C3CC3)c(=O)c3c(Nc4ccc(I)cc4F)n(C)c(=O)c(C)c32)c1 [Trametinib] (first compound max 2 µM, 7x7, partner max 1 µM)

0.195
0.0381
0.0294
-0.0406
0.0433

Bench note: what Bliss excess did C[C@@H]1COCCN1c1cc(C2([S@](C)(=N)=O)CC2)nc(-c2ccnc3[nH]ccc23)n1 [AZD6738] + O=C(c1cc(Cc2n[nH]c(=O)c3ccccc23)ccc1F)N1CCN(C(=O)C2CC2)CC1 [Olaparib] (first compound max 10 µM, 7x7, partner max 10 µM) show?
-0.0108

* * *

# Tested on: CAL-148 (Breast Carcinoma)
# protocolSummary: Bliss excess, mean over the matrix (fraction); higher = more synergy
Give y when the value for Bliss excess is at least -0.002. Give n when it is less.

See these solved cases before continuing.
CN(CCO)CC[C@H](CSc1ccccc1)Nc1ccc(S(=O)(=O)NC(=O)c2ccc(N3CCC([C@@H](O)c4ccccc4-c4ccc(Cl)cc4)CC3)cc2)cc1S(=O)(=O)C(F)(F)F [AZD4320] + Nc1ccn([C@@H]2O[C@H](CO)[C@@H](O)C2(F)F)c(=O)n1 [Gemcitabine] (first compound max 1 µM, 7x7, partner max 0.3 µM) | y
CCc1c2c(nc3ccc(O)cc13)-c1cc3c(c(=O)n1C2)COC(=O)[C@]3(O)CC [SN-38] + O=C(c1cc(Cc2n[nH]c(=O)c3ccccc23)ccc1F)N1CCN(C(=O)C2CC2)CC1 [Olaparib] (first compound max 0.3 µM, 7x7, partner max 10 µM) | y
CN(C)CCCOc1ccc(-c2ccc3ncc4c(c3c2)n(C2CCOCC2)c(=O)n4C)cn1 [AZD0156] + O=C(c1cc(Cc2n[nH]c(=O)c3ccccc23)ccc1F)N1CCN(C(=O)C2CC2)CC1 [Olaparib] (first compound max 3 µM, partner max 3 µM) | y
COc1cccc(OCCCN)c1-c1cc(Nc2cnc(C#N)cn2)n[nH]1 [Prexasertib] + CN(C)CCCOc1ccc(-c2ccc3ncc4c(c3c2)n(C2CCOCC2)c(=O)n4C)cn1 [AZD0156] (first compound max 1 µM, 7x7, partner max 1 µM) | n
NC1(C(=O)N[C@@H](CCO)c2ccc(Cl)cc2)CCN(c2ncnc3[nH]ccc23)CC1 [Capivasertib] + CC(=O)c1c(C)c2cnc(Nc3ccc(N4CCNCC4)cn3)nc2n(C2CCCC2)c1=O [Palbociclib] (first compound max 10 µM, 7x7, partner max 10 µM) | n
CCN(CCO)CCCOc1ccc2c(Nc3cc(CC(=O)Nc4cccc(F)c4)[nH]n3)ncnc2c1 [AZD2811] + O=C(c1cc(Cc2n[nH]c(=O)c3ccccc23)ccc1F)N1CCN(C(=O)C2CC2)CC1 [Olaparib] (first compound max 1 µM, 7x7, partner max 10 µM) | y
C=CCn1c(=O)c2cnc(Nc3ccc(N4CCN(C)CC4)cc3)nc2n1-c1cccc(C(C)(C)O)n1 [AZD1775] + CCc1c2c(nc3ccc(O)cc13)-c1cc3c(c(=O)n1C2)COC(=O)[C@]3(O)CC [SN-38] (first compound max 1 µM, partner max 0.3 µM) | n
CN(C)CCCOc1ccc(-c2ccc3ncc4c(c3c2)n(C2CCOCC2)c(=O)n4C)cn1 [AZD0156] + CCN(CCO)CCCOc1ccc2c(Nc3cc(CC(=O)Nc4cccc(F)c4)[nH]n3)ncnc2c1 [AZD2811] (first compound max 1 µM, 7x7, partner max 1 µM) | n
Cc1c2c(nn1C)CSCc1cc(n(C)n1)CSc1cc(c3ccccc3c1)OCCCc1c(C(=O)O)n(C)c3c-2c(Cl)ccc13 [AZD5991] + CC1(C)CCC(CN2CCN(c3ccc(C(=O)NS(=O)(=O)c4ccc(NCC5CCOCC5)c([N+](=O)[O-])c4)c(Oc4cnc5[nH]ccc5c4)c3)CC2)=C(c2ccc(Cl)cc2)C1 [Venetoclax] (first compound max 1 µM, 7x7, partner max 1 µM) | n
CN(C)CCCOc1ccc(-c2ccc3ncc4c(c3c2)n(C2CCOCC2)c(=O)n4C)cn1 [AZD0156] + C=CCn1c(=O)c2cnc(Nc3ccc(N4CCN(C)CC4)cc3)nc2n1-c1cccc(C(C)(C)O)n1 [AZD1775] (first compound max 1 µM, partner max 1 µM) | n

Given Cn1cnc2c(F)c(Nc3ccc(Br)cc3Cl)c(C(=O)NOCCO)cc21 [Selumetinib] + CCN(CCO)CCCOc1ccc2c(Nc3cc(CC(=O)Nc4cccc(F)c4)[nH]n3)ncnc2c1 [AZD2811] (first compound max 10 µM, 7x7, partner max 1 µM) , state whether its Bliss excess is at least -0.002.
n

Request: CC1(C)CCC(CN2CCN(c3ccc(C(=O)NS(=O)(=O)c4ccc(NCC5CCOCC5)c([N+](=O)[O-])c4)c(Oc4cnc5[nH]ccc5c4)c3)CC2)=C(c2ccc(Cl)cc2)C1 [Venetoclax] + Cn1cnc2c(F)c(Nc3ccc(Br)cc3Cl)c(C(=O)NOCCO)cc21 [Selumetinib] (first compound max 1 µM, 7x7, partner max 3 µM)
n

Request: O=C(c1cc(Cc2n[nH]c(=O)c3ccccc23)ccc1F)N1CCN(C(=O)C2CC2)CC1 [Olaparib] + CN(CC[C@H](CSC1=CC=CC=C1)NC2=C(C=C(C=C2)S(=O)(=O)NC(=O)C3=CC=C(C=C3)N4CCC(CC4)[C@H](C5=CC=CC=C5C6=CC=C(C=C6)Cl)O)S(=O)(=O)C(F)(F)F)CCO [AZD4320] (first compound max 10 µM, 7x7, partner max 1 µM)
y

Request: CS(=O)(=O)CCNCc1ccc(-c2ccc3ncnc(Nc4ccc(OCc5cccc(F)c5)c(Cl)c4)c3c2)o1 [Lapatinib] + NC1(c2ccc(-c3nc4ccn5c(=O)[nH]nc5c4cc3-c3ccccc3)cc2)CCC1 [MK-2206] (first compound max 10 µM, 7x7, partner max 10 µM)
y
